// data source = ChEMBL document CHEMBL4373637

Reported values of pEC50 for individual entries
# System: J774
# procedure-details: Cytotoxicity against mouse J774 cells assessed as reduction in cell viability after 24 hrs by WST-1 assay
# Format: cell-based
# test-context: J774, 24 h
# pEC50: negative log10 of molar concentration; output just the value

compound="CCOC(=O)C1=C(C(=O)OCC)C2CSC(CS1)N2Cc1ccc(F)cc1 (stereo not drawn)" assay_system=J774 measured_attribute=pEC50 measured=4.19
compound="CC1CS(=O)(=O)CCN1/N=C/c1ccc([N+](=O)[O-])o1 (stereo not drawn)" assay_system=J774 measured_attribute=pEC50 measured=3.82

Now consider the entry below.
Given the compound O=C(OCc1c(-c2ccccc2)no[n+]1[O-])C1=C(C(=O)c2ccc(Cl)cc2)C2CSC(CS1)N2Cc1ccccc1 (stereo not drawn) , what is its reported pEC50? 5.51
